FYI, the data here is from ChEMBL document CHEMBL1165980.

test system: HepG2; assay: Cytotoxicity against human HepG2 cells after 72 hrs by MTT assay; assay type: functional, cell-based; conditions: HepG2, 72 h
Response field label takes yes when IC50 is strictly below 10 µM and no in all other cases.

Please review the entries below; each comes with its answer.
- C=C(C)[C@@H]1CC[C@]2(COC(=O)n3ccnc3C)CC[C@]3(C)[C@H](CC[C@@H]4[C@@]5(C)CC[C@H](OC(=O)n6ccnc6C)C(C)(C)[C@@H]5CC[C@]43C)[C@@H]12: no
- C=C(C)[C@@H]1CC[C@]2(C(=O)n3cncn3)CC[C@]3(C)[C@H](CC[C@@H]4[C@@]5(C)CC[C@H](OC(=O)n6cncn6)C(C)(C)[C@@H]5CC[C@]43C)[C@@H]12: yes
- C=C(COC)[C@@H]1CC[C@]2(COC(=O)n3cncn3)CC[C@]3(C)[C@H](CC[C@@H]4[C@@]5(C)CC[C@H](O)C(C)(C)[C@@H]5CC[C@]43C)[C@@H]12: yes
- C=C(COC)[C@@H]1CC[C@]2(COC(=O)n3ccnc3C)CC[C@]3(C)[C@H](CC[C@@H]4[C@@]5(C)CC[C@H](O)C(C)(C)[C@@H]5CC[C@]43C)[C@@H]12: no
- C=C(C)[C@@H]1CC[C@]2(CO)CC[C@]3(C)[C@H](CC[C@@H]4[C@@]5(C)CC[C@H](OC(=O)n6cncn6)C(C)(C)[C@@H]5CC[C@]43C)[C@@H]12: yes
- C=C(C)[C@@H]1CC[C@]2(COC(=O)n3ccnc3C)CC[C@]3(C)[C@H](CC[C@@H]4[C@@]5(C)CC[C@H](OC(C)=O)C(C)(C)[C@@H]5CC[C@]43C)[C@@H]12: no
- C=C(C)[C@@H]1CC[C@]2(C(=O)O)CC[C@]3(C)[C@H](CC[C@@H]4[C@@]5(C)C=C(OC(=O)n6ccnc6C)C(=O)C(C)(C)[C@@H]5CC[C@]43C)[C@@H]12: yes
- C=C(C)[C@@H]1CC[C@]2(C(=O)O)CC[C@]3(C)[C@H](CC[C@@H]4[C@@]5(C)CC[C@H](O)C(C)(C)[C@@H]5CC[C@]43C)[C@@H]12 [BETULINIC ACID]: no

Given "C=C(C)[C@@H]1CC[C@]2(C(=O)O)CC[C@]3(C)[C@H](CC[C@@H]4[C@@]5(C)CC[C@H](OC(=O)n6ccnc6C)C(C)(C)[C@@H]5CC[C@]43C)[C@@H]12" , is recorded IC50 strictly lower than 10 µM?
yes

Given "C=C(C)[C@@H]1CC[C@]2(C(=O)n3ccnc3C)CC[C@]3(C)[C@H](CC[C@@H]4[C@@]5(C)C=CC(=O)C(C)(C)[C@@H]5CC[C@]43C)[C@@H]12" , is recorded IC50 strictly lower than 10 µM?
yes

Given "C=C(C)[C@@H]1CC[C@]2(C(=O)n3ccnc3C)CC[C@]3(C)[C@H](CC[C@@H]4[C@@]5(C)CCC(=O)C(C)(C)[C@@H]5CC[C@]43C)[C@@H]12" , is recorded IC50 strictly lower than 10 µM?
yes

Given "C=C(COC)[C@@H]1CC[C@]2(COC(=O)n3ccnc3C)CC[C@]3(C)[C@H](CC[C@@H]4[C@@]5(C)CC[C@H](OC(=O)n6ccnc6C)C(C)(C)[C@@H]5CC[C@]43C)[C@@H]12" , is recorded IC50 strictly lower than 10 µM?
no

Given "C=C(C)[C@@H]1CC[C@]2(COC(=O)n3ccnc3C)CC[C@]3(C)[C@H](CC[C@@H]4[C@@]5(C)CC[C@H](O)C(C)(C)[C@@H]5CC[C@]43C)[C@@H]12" , is recorded IC50 strictly lower than 10 µM?
no
